Recorded values, source paper PMC9958325.

Tested on: HepG2 cells

[
  {
    "moleculeSmiles": "CC(C)(C)[C@H](NC(=O)C(F)(F)F)C(=O)N1C[C@H]2[C@@H]([C@H]1C(=O)N[C@@H](C[C@@H]1CCNC1=O)C(=O)c1nc3c(F)cccc3s1)C2(C)C",
    "CC50": "> 200 µM"
  },
  {
    "moleculeSmiles": "CC(C)(C)[C@H](NC(=O)C(F)(F)F)C(=O)N1C[C@H]2[C@@H]([C@H]1C(=S)N[C@@H](C[C@@H]1CCNC1=O)C(=O)c1nc3c(F)cccc3s1)C2(C)C",
    "CC50": "> 200 µM"
  }
]

---

Biological target: SARS-CoV-2 M^pro/3CL^pro (Severe acute respiratory syndrome coronavirus 2, UniProt P0DTD1)
Assay type: biochemical
Design: unit: µM
Details: source data; M^pro enzyme assay

[
  {
    "moleculeSmiles": "CC(C)(C)[C@H](NC(=O)C(F)(F)F)C(=O)N1C[C@H]2[C@@H]([C@H]1C(=S)N[C@@H](C[C@@H]1CCNC1=O)C(=O)c1nc3c(F)cccc3s1)C2(C)C",
    "IC95, Average": 6.000
  },
  {
    "moleculeSmiles": "COc1ccc(F)c2[nH]c(C(=O)N[C@@H](CC(C)C)C(=O)N[C@@H](C[C@@H]3CCNC3=O)C(=O)c3nc4ccccc4s3)cc12",
    "IC95, Average": 1.022
  },
  {
    "moleculeSmiles": "COc1ccc(F)c2[nH]c(C(=O)N[C@@H](CC(C)C)C(=O)N[C@@H](C[C@@H]3CCNC3=O)C(=O)c3nc4c(F)cccc4s3)cc12",
    "IC95, Average": 0.7533
  },
  {
    "moleculeSmiles": "CC(C)(C)[C@H](NC(=O)C(F)(F)F)C(=O)N1C[C@H]2[C@@H]([C@H]1C(=O)N[C@@H](C[C@@H]1CCNC1=O)C(=O)c1nc3c(F)cccc3s1)C2(C)C",
    "IC95, Average": 0.1363
  }
]

---

Experiment: Pharmacokinetic study in PXB-mice (human liver-chimeric)
Settings: male, PXB (human liver-chimeric), mouse, plasma, po, 10 mg/kg, Plasma concentration, PXB-mice, p.o. 10 mg/kg, 10 min; individual mice

[
  {
    "molecule": "CC(C)(C)[C@H](NC(=O)C(F)(F)F)C(=O)N1C[C@H]2[C@@H]([C@H]1C(=O)N[C@H](C#N)C[C@@H]1CCNC1=O)C2(C)C [Nirmatrelvir, reference compound]",
    "measurementUnits": "ng/mL",
    "concentration at 10 min": 1600
  }
]

---

System: SARS-CoV-2 TKYX00012/ο BA.1
Experiment: microbe, parasite or virus in culture
Format: cell-based
Conditions: Severe acute respiratory syndrome coronavirus 2, Vero C1008, read-out: EC50 against KTKYX00012/ο BA.1

[
  {
    "molecule": "CC(C)(C)[C@H](NC(=O)C(F)(F)F)C(=O)N1C[C@H]2[C@@H]([C@H]1C(=O)N[C@H](C#N)C[C@@H]1CCNC1=O)C2(C)C [Nirmatrelvir, reference compound]",
    "EC50 (nM)": 1050
  }
]

---

Test: Pharmacokinetic study in PXB-mice (human liver-chimeric)
Conditions: PXB (human liver-chimeric), mouse, plasma, po, 10 mg/kg, plasma concentration; 1440 min; individual animals (3 per time point); LC/MS/MS
quantityKind: concentration at 1440 min

[
  {
    "molecule": "CC(C)(C)[C@H](NC(=O)C(F)(F)F)C(=O)N1C[C@H]2[C@@H]([C@H]1C(=O)N[C@H](C#N)C[C@@H]1CCNC1=O)C2(C)C [Nirmatrelvir, reference compound]",
    "quantityKind": "concentration at 1440 min",
    "experimentalResult": "0.63 ng/mL"
  }
]

---

Test: Pharmacokinetic study in PXB-mice (human liver-chimeric)
Conditions: PXB (human liver-chimeric), mouse, plasma, po, 10 mg/kg, plasma concentration; 10 min; individual animals (3 per time point); LC/MS/MS
quantityKind: concentration at 10 min (ng/mL)

[
  {
    "molecule": "CC(C)(C)[C@H](NC(=O)C(F)(F)F)C(=O)N1C[C@H]2[C@@H]([C@H]1C(=O)N[C@H](C#N)C[C@@H]1CCNC1=O)C2(C)C [Nirmatrelvir, reference compound]",
    "measurementUnits": "ng/mL",
    "experimentalResult": 1600
  }
]

---

The entries below are paired with their reported pIC50.
Molecular target: human cathepsin L (Homo sapiens)
Sequence (P07711 114-333): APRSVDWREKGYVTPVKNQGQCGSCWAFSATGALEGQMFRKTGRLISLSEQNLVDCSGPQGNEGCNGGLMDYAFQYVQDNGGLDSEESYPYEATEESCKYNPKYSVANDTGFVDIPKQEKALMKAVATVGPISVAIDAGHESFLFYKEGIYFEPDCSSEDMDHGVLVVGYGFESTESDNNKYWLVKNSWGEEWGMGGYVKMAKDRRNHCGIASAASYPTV
pIC50: −log10 of the molar value.
quantityKind: pIC50

[
  {
    "molecule": "CC(C)(C)[C@H](NC(=O)C(F)(F)F)C(=O)N1C[C@H]2[C@@H]([C@H]1C(=S)N[C@@H](C[C@@H]1CCNC1=O)C(=O)c1nc3c(F)cccc3s1)C2(C)C [TKB248]",
    "experimentalResult": "< 4.80"
  },
  {
    "molecule": "CC(C)(C)[C@H](NC(=O)C(F)(F)F)C(=O)N1C[C@H]2[C@@H]([C@H]1C(=O)N[C@@H](C[C@@H]1CCNC1=O)C(=O)c1nc3c(F)cccc3s1)C2(C)C [TKB245]",
    "experimentalResult": "< 4.80"
  }
]

---

Test: Pharmacokinetic study in PXB-mice (human liver-chimeric)
Settings: male, PXB (human liver-chimeric), mouse, plasma, iv, 10 mg/kg, Plasma concentration, PXB-mice, i.v. 10 mg/kg, 8 hr; individual mice
quantityKind: concentration at 8 hr (ng/mL)

[
  {
    "compound": "CC(C)(C)[C@H](NC(=O)C(F)(F)F)C(=O)N1C[C@H]2[C@@H]([C@H]1C(=O)N[C@H](C#N)C[C@@H]1CCNC1=O)C2(C)C [Nirmatrelvir, reference compound]",
    "quantityKind": "concentration at 8 hr",
    "experimentalResult": 0
  }
]

---

Tested on: SARS-CoV-2 TKYS02037/ο BA.2
Experiment: microbe, parasite or virus in culture
Format: cell-based
Conditions: read-out: EC50 against TKYVS2037/ο BA.2
pEC50: −log10 of the molar value.
quantityKind: pEC50

[
  {
    "moleculeSmiles": "CC(C)(C)[C@H](NC(=O)C(F)(F)F)C(=O)N1C[C@H]2[C@@H]([C@H]1C(=O)N[C@@H](C[C@@H]1CCNC1=O)C(=O)c1nc3c(F)cccc3s1)C2(C)C",
    "quantityKind": "pEC50",
    "experimentalResult": 7.35
  },
  {
    "moleculeSmiles": "CC(C)(C)[C@H](NC(=O)C(F)(F)F)C(=O)N1C[C@H]2[C@@H]([C@H]1C(=S)N[C@@H](C[C@@H]1CCNC1=O)C(=O)c1nc3c(F)cccc3s1)C2(C)C",
    "quantityKind": "pEC50",
    "experimentalResult": 6.68
  }
]

---

Below is a list of entries, each paired with its recorded EC50 value.
Tested on: SARS-CoV-2 TKYTS14631/ο BA.5
Experiment: microbe, parasite or virus in culture
Assay type: cell-based
Details: read-out: EC50 ο BA5, Average

[
  {
    "compound": "CC(C)(C)[C@H](NC(=O)C(F)(F)F)C(=O)N1C[C@H]2[C@@H]([C@H]1C(=O)N[C@@H](C[C@@H]1CCNC1=O)C(=O)c1nc3c(F)cccc3s1)C2(C)C [TKB245]",
    "EC50": "18.8 nM"
  },
  {
    "compound": "CC(C)(C)[C@H](NC(=O)C(F)(F)F)C(=O)N1C[C@H]2[C@@H]([C@H]1C(=S)N[C@@H](C[C@@H]1CCNC1=O)C(=O)c1nc3c(F)cccc3s1)C2(C)C [TKB248]",
    "EC50": "70.7 nM"
  }
]

---

Listed compounds paired with reported pEC50
Test system: SARS-CoV-2^WK-521
Experiment: microbe, parasite or virus in culture
Type: cell-based
Details: read-out: SARS-CoV2 RNA VeroE6 cell-based assay EC50
pEC50: −log10 of the molar value.
quantityKind: pEC50

[
  {
    "compound": "CC(C)(C)[C@H](NC(=O)C(F)(F)F)C(=O)N1C[C@H]2[C@@H]([C@H]1C(=O)N[C@@H](C[C@@H]1CCNC1=O)C(=O)c1nc3c(F)cccc3s1)C2(C)C",
    "experimentalResult": 7.52
  },
  {
    "compound": "CC(C)(C)[C@H](NC(=O)C(F)(F)F)C(=O)N1C[C@H]2[C@@H]([C@H]1C(=S)N[C@@H](C[C@@H]1CCNC1=O)C(=O)c1nc3c(F)cccc3s1)C2(C)C",
    "experimentalResult": 6.66
  },
  {
    "compound": "COc1cccc2[nH]c(C(=O)N[C@@H](CC(C)C)C(=O)N[C@@H](C[C@@H]3CCNC3=O)C(=O)c3nc4ccccc4s3)cc12 [Compound 5h, reference compound]",
    "experimentalResult": 5.59
  },
  {
    "compound": "COc1ccc(F)c2[nH]c(C(=O)N[C@@H](CC(C)C)C(=O)N[C@@H](C[C@@H]3CCNC3=O)C(=O)c3nc4ccccc4s3)cc12",
    "experimentalResult": 5.74
  },
  {
    "compound": "COc1ccc(F)c2[nH]c(C(=O)N[C@@H](CC(C)C)C(=O)N[C@@H](C[C@@H]3CCNC3=O)C(=O)c3nc4c(F)cccc4s3)cc12",
    "experimentalResult": 6.57
  }
]
